Listed here are compounds together with their documented inhibition.
# measured.on: Epidermal growth factor receptor (Homo sapiens)
# protocol.summary: Inhibition of Epidermal growth factor receptor at 10 uM

| smiles | measured.on | inhibition, % |
| --- | --- | --- |
| CN1CCC(c2c(O)cc(O)c3c2O/C(=C\c2ccc(N4CCN(C)CC4)cc2)C3=O)CC1 | Epidermal growth factor receptor (Homo sapiens) | 29 |
| CN1CCC(c2c(O)cc(O)c3c2O/C(=C\c2ccc([N+](=O)[O-])cc2)C3=O)CC1 | Epidermal growth factor receptor (Homo sapiens) | 43 |
| CN1CCC(c2c(O)cc(O)c3c2O/C(=C\c2ccc(S(N)(=O)=O)cc2)C3=O)CC1 | Epidermal growth factor receptor (Homo sapiens) | 36 |
| CN1CCC(c2c(O)cc(O)c3c2O/C(=C\c2ccccc2)C3=O)CC1 | Epidermal growth factor receptor (Homo sapiens) | 38 |

###

# measured.on: Vascular endothelial growth factor receptor 2 (Homo sapiens) (UniProt P35968)
# Sequence (P35968 whole entry): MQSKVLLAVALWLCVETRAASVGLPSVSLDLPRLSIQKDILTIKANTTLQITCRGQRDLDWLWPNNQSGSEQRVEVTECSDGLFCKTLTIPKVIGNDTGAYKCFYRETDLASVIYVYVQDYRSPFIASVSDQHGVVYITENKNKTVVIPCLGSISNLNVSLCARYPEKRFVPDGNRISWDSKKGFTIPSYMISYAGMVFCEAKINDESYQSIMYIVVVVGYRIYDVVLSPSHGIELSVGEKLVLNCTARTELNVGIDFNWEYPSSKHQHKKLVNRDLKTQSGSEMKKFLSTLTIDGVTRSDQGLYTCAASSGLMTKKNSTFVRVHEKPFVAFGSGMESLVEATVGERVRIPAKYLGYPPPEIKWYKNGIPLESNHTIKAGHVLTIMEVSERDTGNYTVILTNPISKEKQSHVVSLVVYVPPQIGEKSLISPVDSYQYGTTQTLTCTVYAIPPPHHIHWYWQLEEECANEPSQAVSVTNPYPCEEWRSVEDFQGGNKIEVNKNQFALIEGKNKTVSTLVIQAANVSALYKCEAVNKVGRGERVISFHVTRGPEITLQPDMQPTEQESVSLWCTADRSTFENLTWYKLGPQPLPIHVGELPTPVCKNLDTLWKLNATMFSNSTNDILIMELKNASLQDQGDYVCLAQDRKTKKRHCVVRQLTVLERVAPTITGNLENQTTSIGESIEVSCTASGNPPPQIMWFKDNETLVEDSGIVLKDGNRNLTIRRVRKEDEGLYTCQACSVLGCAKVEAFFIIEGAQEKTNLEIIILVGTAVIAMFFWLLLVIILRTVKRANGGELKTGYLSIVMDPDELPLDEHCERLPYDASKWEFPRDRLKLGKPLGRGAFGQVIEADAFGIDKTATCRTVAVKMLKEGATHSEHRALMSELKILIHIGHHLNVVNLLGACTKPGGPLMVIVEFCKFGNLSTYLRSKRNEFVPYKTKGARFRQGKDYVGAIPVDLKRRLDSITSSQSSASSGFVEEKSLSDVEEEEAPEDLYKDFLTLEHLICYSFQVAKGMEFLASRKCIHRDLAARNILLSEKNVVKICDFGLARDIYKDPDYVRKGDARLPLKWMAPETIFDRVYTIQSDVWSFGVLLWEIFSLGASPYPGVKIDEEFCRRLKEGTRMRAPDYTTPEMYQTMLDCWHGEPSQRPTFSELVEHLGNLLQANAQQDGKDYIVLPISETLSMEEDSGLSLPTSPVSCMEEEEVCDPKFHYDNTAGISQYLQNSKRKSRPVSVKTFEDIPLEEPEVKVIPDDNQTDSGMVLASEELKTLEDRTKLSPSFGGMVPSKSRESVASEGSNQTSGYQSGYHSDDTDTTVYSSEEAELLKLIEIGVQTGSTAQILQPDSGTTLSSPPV
# protocol.summary: Inhibition of Vascular endothelial growth factor receptor 2 (VEGF-KDR) at 10 uM
Listed here are compounds together with their documented inhibition.

| smiles | reading.unit | inhibition |
| --- | --- | --- |
| CN1CCC(c2c(O)cc(O)c3c2O/C(=C\c2ccccc2)C3=O)CC1 | % | 2 |
| CN1CCC(c2c(O)cc(O)c3c2O/C(=C\c2ccc(S(N)(=O)=O)cc2)C3=O)CC1 | % | 25 |
| CN1CCC(c2c(O)cc(O)c3c2O/C(=C\c2ccccc2Cl)C3=O)CC1 | % | 17 |
| CN1CCC(c2c(O)cc(O)c3c2O/C(=C\c2ccc(N4CCN(C)CC4)cc2)C3=O)CC1 | % | 25 |
| CN1CCC(c2c(O)cc(O)c3c2O/C(=C\c2ccc([N+](=O)[O-])cc2)C3=O)CC1 | % | 37 |

###

# measured.on: UniProtKB P06493
# Sequence (P06493 whole entry): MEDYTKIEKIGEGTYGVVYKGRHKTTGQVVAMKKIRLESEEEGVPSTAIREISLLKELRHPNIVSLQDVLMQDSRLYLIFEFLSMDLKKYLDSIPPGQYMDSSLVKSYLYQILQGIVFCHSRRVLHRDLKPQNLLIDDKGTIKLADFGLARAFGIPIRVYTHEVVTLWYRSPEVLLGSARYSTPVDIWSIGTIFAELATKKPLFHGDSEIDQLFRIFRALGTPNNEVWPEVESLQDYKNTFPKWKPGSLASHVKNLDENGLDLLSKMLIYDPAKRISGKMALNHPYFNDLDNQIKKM
# protocol.summary: Inhibition of cyclin B activated Cyclin-dependent kinase 1 (CDK1)

| smiles | measured.on | IC50 |
| --- | --- | --- |
| CN1CCC(c2c(O)cc(O)c3c2O/C(=C\c2ccccc2Cl)C3=O)CC1 | UniProtKB P06493 | 600 nM |
| CN1CCC(c2c(O)cc(O)c3c2O/C(=C\c2ccc(S(N)(=O)=O)cc2)C3=O)CC1 | UniProtKB P06493 | 9 nM |
| CN1CCC(c2c(O)cc(O)c3c2O/C(=C\c2ccc(N4CCN(C)CC4)cc2)C3=O)CC1 | UniProtKB P06493 | 800 nM |
| CN1CCC(c2c(O)cc(O)c3c2O/C(=C\c2ccccc2)C3=O)CC1 | UniProtKB P06493 | 110 nM |

###

Listed here are compounds together with their documented pIC50.
# measured.on: Cyclin-dependent kinase 4 (Homo sapiens, UniProt P11802)
# Sequence (P11802 whole entry): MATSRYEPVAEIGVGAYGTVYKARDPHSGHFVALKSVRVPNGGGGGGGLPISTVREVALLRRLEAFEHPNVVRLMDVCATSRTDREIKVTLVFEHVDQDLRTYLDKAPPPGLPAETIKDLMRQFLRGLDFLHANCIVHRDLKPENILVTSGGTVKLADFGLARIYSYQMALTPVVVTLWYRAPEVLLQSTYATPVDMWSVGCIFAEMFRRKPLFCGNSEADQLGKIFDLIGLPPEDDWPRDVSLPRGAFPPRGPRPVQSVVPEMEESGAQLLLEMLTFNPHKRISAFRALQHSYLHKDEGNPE
# protocol.summary: Inhibition of cyclin D1 activated Cyclin-dependent kinase 4 (CDK4)
pIC50: −log10 of the molar value.
property: pIC50

| smiles | property | recorded.number |
| --- | --- | --- |
| CN1CCC(c2c(O)cc(O)c3c2O/C(=C\c2ccccc2Cl)C3=O)CC1 | pIC50 | 4.60 |
| CN1CCC(c2c(O)cc(O)c3c2O/C(=C\c2ccc([N+](=O)[O-])cc2)C3=O)CC1 | pIC50 | 5.66 |
| CN1CCC(c2c(O)cc(O)c3c2O/C(=C\c2ccc(S(N)(=O)=O)cc2)C3=O)CC1 | pIC50 | 5.73 |
| CN1CCC(c2c(O)cc(O)c3c2O/C(=C\c2ccc(N4CCN(C)CC4)cc2)C3=O)CC1 | pIC50 | 5.72 |
| CN1CCC(c2c(O)cc(O)c3c2O/C(=C\c2ccccc2)C3=O)CC1 | pIC50 | 5.36 |
